target: Elastase (Pseudomonas aeruginosa (strain ATCC 15692 / DSM 22644 / CIP 104116 / JCM 14847 / LMG 12228 / 1C / PRS 101 / PAO1), UniProt P14756); test: In Vitro LasB Activity Assay
Sequence (P14756 whole entry): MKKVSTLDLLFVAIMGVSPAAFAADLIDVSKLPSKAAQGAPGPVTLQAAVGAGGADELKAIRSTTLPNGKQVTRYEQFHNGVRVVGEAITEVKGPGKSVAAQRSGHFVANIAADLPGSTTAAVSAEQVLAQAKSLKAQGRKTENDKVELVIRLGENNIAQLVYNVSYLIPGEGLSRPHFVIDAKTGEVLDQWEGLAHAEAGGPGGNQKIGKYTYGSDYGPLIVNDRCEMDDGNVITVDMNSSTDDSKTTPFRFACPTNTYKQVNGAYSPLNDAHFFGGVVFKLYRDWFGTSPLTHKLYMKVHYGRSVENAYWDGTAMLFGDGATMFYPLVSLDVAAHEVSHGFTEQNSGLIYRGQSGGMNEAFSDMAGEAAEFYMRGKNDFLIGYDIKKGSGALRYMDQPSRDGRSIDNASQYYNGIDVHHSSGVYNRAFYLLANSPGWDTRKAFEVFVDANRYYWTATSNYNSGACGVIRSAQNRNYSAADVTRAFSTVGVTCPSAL
pIC50: −log10 of the molar value.

Compound	pIC50
CC(C)CC(C(=O)NO)C(=O)Nc1ccc(Cn2cc(CNS(=O)(=O)c3ccc(C(=O)O)cc3)nn2)cc1 (stereo unspecified)	7.35
